- assay procedure: Analytical gel filtration, oligomeric states of peptides
- Assay type: physicochemical
- measurement setup: 10 μM, Superdex 75, buffer with 0.1 mM DDM
assay endpoint: Oligomeric state by gel filtration

LKAQADIYKADFQAERHAREKLVEKKEYLQEQLEQLQREFNKL [LZ (WT)]
dimer

====

- subject of test: CC2 peptide (minimal oligomerization domain of NEMO) (Mus musculus, UniProt O88522)
- Construct: made in house; host or cells: chemical solid-phase synthesis (Fmoc/tBu), no expression host
- assay procedure: Fluorescence anisotropy titration with CC2 peptide
- Format: binding, murine
* marks the point of attachment. BODIPYFLEthylmaleimide = Cc1cc(C)n2c1C=C1C=CC(CCC(=O)NCCN3C(=O)CC(*)C3=O)=[N+]1[B-]2(F)F
assay endpoint: Kd (µM)
Answers are plain numbers, in µM.

Please state recorded Kd (tested on CC2 peptide (minimal oligomerization domain of NEMO) (Mus musculus, UniProt O88522)) of Ac-C(BODIPYFLEthylmaleimide)RQIKIWFQNRRMKWKKSKGMQLEDLRQQLQQAEEALVAKQELIDKLKEEAEQHKIV-NH2 [BODIPY-Ant-CC2 (WT)]
15.2
